Quick reference: absolute recovery of the listed items.
method_summary: absolute recovery over mixed-bed multilayer solid-phase extraction; higher = better recovery
conditions: wastewater influent; enrichment method: SPE
// units = %; emit number, no label

[[record]]
compound = "COC(=O)c1csc(C)c1S(=O)(=O)[N-]C(=O)n1nc(OC)n(C)c1=O"
reported_measurement = 87

[[record]]
compound = "CC(C)(C)Nc1nc(N)nc(Cl)n1"
reported_measurement = 96.2

[[record]]
compound = "C[NH+](C)CCOC(c1ccccc1)c1ccccc1 [Diphenhydramine]"
reported_measurement = 77.8

[[record]]
compound = "CCCN(CCOc1c(Cl)cc(Cl)cc1Cl)C(=O)n1ccnc1"
reported_measurement = 92.3

[[record]]
compound = "COC(=O)Nc1nc2ccccc2[nH]1"
reported_measurement = 94.1


## Task State its absolute recovery for this compound: C#CC(C)(C)NC(=O)c1cc(Cl)cc(Cl)c1 [Propyzamide]
## Result 101

## Task Kindly indicate its recorded absolute recovery. Item: Cc1nc(N(C)C)nc(OC(=O)N(C)C)c1C
## Result 94.1

## Task Return absolute recovery for the following compound: CCCC(CCC)(C(=O)[O-])C(=O)O
## Result 87.9

====

method_summary: absolute recovery over mixed-bed multilayer solid-phase extraction; higher = better recovery
conditions: nanopure water; enrichment method: SPE
In this section we review reported absolute recovery values for a set of compounds.
Supply the numeric figure in %, leaving out any unit text.

Worked examples follow.
[[record]]
compound = "COc1cc(OC)nc(NC(=O)[N-]S(=O)(=O)c2ncccc2C(=O)N(C)C)n1"
measurement_name = "absolute recovery"
reported_measurement = 95.8

[[record]]
compound = "CC12CCC(=O)C=C1CCC1C2C(O)CC2(C)C1CCC2(O)C(=O)CO (configuration not stated) [Hydrocortison]"
measurement_name = "absolute recovery"
reported_measurement = 86.5


## Task Specify measured absolute recovery for c1ccc(C2CN3CCSC3=[NH+]2)cc1 (configuration not stated) .
## Result 84.8

## Task Answer with the recorded absolute recovery of Cc1cc(O)nc(C(C)C)n1 only.
## Result 76.8

## Task Please look at this compound and report its absolute recovery: C[NH2+]C(C)C(=O)c1ccc(C)cc1 (configuration not stated)
## Result 62.3

## Task In one line, give reported absolute recovery of the entry Fc1ccc(Oc2ccnc3cc(Cl)cc(Cl)c23)cc1 .
## Result 63.7

## Task Identify the reported absolute recovery for the following entry. CCCC(C)C1(CC)C(=O)N=C([S-])NC1=O (configuration not stated)
## Result 49.9

## Task Determine its reported absolute recovery: O=C([O-])c1cn(C2CC2)c2cc(N3CC[NH2+]CC3)c(F)cc2c1=O
## Result 77.2

## Task // fetch absolute recovery given entry CCCC(NOCC)=C1C(=O)CC(C2CCCSC2)CC1=O (configuration not stated)
## Result 73.9

====

method_summary: absolute recovery over mixed-bed multilayer solid-phase extraction; higher = better recovery
conditions: nanopure water; enrichment method: SPE
Threshold rule: absolute recovery greater than or equal to 60% is MET; below that, NOT MET.

Solved cases below.
[[record]]
compound = "C[NH+](C)CCOC(C)(c1ccccc1)c1ccccn1 (stereo not given)"
group = "MET"

[[record]]
compound = "O=C(NCC(O)CO)c1c(I)c(C(=O)NCC(O)CO)c(I)c(N(CCO)C(=O)CO)c1I (stereo not given)"
group = "NOT MET"

[[record]]
compound = "Cc1ncc([N+](=O)[O-])n1CCO"
group = "MET"


As a next step, examine the compound that follows.
## Task Threshold query (absolute recovery >= 60%) on CS(=O)(=O)c1cc(C(F)(F)F)ccc1C(=O)c1cnoc1C1CC1
## Result NOT MET

====

method_summary: absolute recovery over vacuum-assisted evaporative concentration; higher = better recovery
conditions: wastewater effluent; enrichment method: VEC
absolute recovery for assorted compounds
Answer in %, number only, no unit symbol.

Worked examples follow.
[[record]]
compound = "CC#Cc1cc(C)nc(Nc2ccccc2)n1"
reported_measurement = 95.3

[[record]]
compound = "NC(=O)c1ncn(C2OC(CO)C(O)C2O)n1 (stereo not given)"
reported_measurement = 87

[[record]]
compound = "NS(=O)(=O)c1cc2c(cc1Cl)NCNS2(=O)=O [Hydrochlorothiazid]"
reported_measurement = 104

[[record]]
compound = "CON(C)C(=O)Nc1ccc(Cl)cc1"
reported_measurement = 92.7

[[record]]
compound = "[NH3+]C(CO)(CO)CO"
reported_measurement = 105

[[record]]
compound = "Cc1onc(-c2ccccc2)c1C(=O)NC1C(=O)N2C1SC(C)(C)C2C(=O)[O-] (stereo not given)"
reported_measurement = 91.3


## Task Let me know recorded absolute recovery for CN(C)C(=O)Nc1ccc(Cl)c(Cl)c1 , thanks.
## Result 109

## Task Answer with the recorded absolute recovery for the compound listed here: O=C(CCC[NH+]1CCC(O)(c2ccc(Cl)cc2)CC1)c1ccc(F)cc1
## Result 114

## Task Please list absolute recovery recorded for the compound Nc1cnn(-c2ccccc2)c(=O)c1Cl
## Result 104

## Task State its absolute recovery: COc1cc(OC)n2nc(S(=O)(=O)Nc3c(Cl)ccc(C)c3Cl)nc2n1
## Result 98.6

====

method_summary: absolute recovery over mixed-bed multilayer solid-phase extraction; higher = better recovery
conditions: wastewater influent; enrichment method: SPE
measurement_name: absolute recovery (%)
API: value field is a number in %; no unit string.

[[record]]
compound = "CS(=O)(=O)c1ccc(C(=O)[C-]2C(=O)CCCC2=O)c(Cl)c1COCC(F)(F)F [Tembotrione]"
reported_measurement = 91.3

[[record]]
compound = "CCCC(C)C1(CC)C(=O)N=C([S-])NC1=O (centres undefined) [Thiopental]"
reported_measurement = 73.1


Next:
## Task Given the compound O=C1CC(C(=O)[O-])CC(=O)C1=C([O-])C1CC1 (centres undefined) [Trinexapac (free acid)] , write its reported absolute recovery.
## Result 77

====

method_summary: LC retention time (Atlantis T3, 5-95% MeOH gradient, 0.1% formic acid); higher = more retained / less polar
Assign class by LC retention time: not lower than 20 min means 1; lower than 20 min means -1.

[[record]]
molecule = "CCc1cccc(C)c1N(C(=O)CCl)C(C)COC (stereo not given)"
group = 1

[[record]]
molecule = "c1cncc(C2CCC[NH2+]2)c1 (stereo not given)"
group = -1

[[record]]
molecule = "Nc1c(Cl)c(F)nc(OCC(=O)[O-])c1Cl [Fluroxypyr (free acid)]"
group = -1


## Task Identify whether the reported LC retention time of the following molecule is 20 min or greater: COc1ccc(CC[NH+](C)CCCC(C#N)(c2ccc(OC)c(OC)c2)C(C)C)cc1OC (stereo not given)
## Result -1

## Task # bool: LC retention time of CC=CC(=O)N(CC)c1ccccc1C >= 20 min
## Result -1

## Task Answer whether LC retention time of OC(Cc1ccccc1Cl)(Cn1cncn1)C1(Cl)CC1 (stereo not given) is greater than or equal to 20 min.
## Result 1

## Task Item C[NH+](C)CCOC(c1ccccc1)c1ccccc1 [Diphenhydramine] with LC retention time of 20 min or above?
## Result -1

## Task # check: LC retention time of CC[NH+](CC)CCNC(=O)c1cc(Cl)c(N)cc1OC is greater than or equal to 20 min
## Result -1

## Task API: above_or_equal(metric=LC retention time, cutoff=20 min) for item CCNc1nc(O)nc(NCC)n1 [Simazin-2-hydroxy]
## Result -1

## Task Evaluate Fc1ccc(Oc2ccnc3cc(Cl)cc(Cl)c23)cc1 : LC retention time at minimum 20 min?
## Result 1

## Task Reported LC retention time reaches at least 20 min for COc1c(Cl)ccc(Cl)c1C(=O)[O-] ?
## Result -1

## Task Check if LC retention time >= 20 min (inclusive). Item: [O-][n+]1nc(-n2ccnc2)nc2ccc(Cl)cc21 [Triazoxide]
## Result -1

## Task Reported LC retention time at or above 20 min? NC1=C(Cl)C(=O)c2ccccc2C1=O
## Result -1

## Task Assess whether reported LC retention time for C[NH+](C)CCC=C1c2ccccc2COc2ccc(CC(=O)[O-])cc21 sits at 20 min or higher.
## Result -1

## Task Reported LC retention time at or above 20 min? CCCOc1nc2ccc(I)cc2c(=O)n1CCC
## Result 1

## Task Does the molecule CCC1OC(=O)CC(O)C(C)C(OC2OC(C)C(OC3CC(C)(O)C(O)C(C)O3)C([NH+](C)C)C2O)C(CC=O)CC(C)C(=O)C=CC(C)=CC1COC1OC(C)C(O)C(OC)C1OC (stereo not given) have recorded LC retention time that is 20 min or more?
## Result -1

## Task LC retention time >= 20 min for NC1=[NH+]CCN1Cc1ccc(Cl)nc1 ?
## Result -1

## Task Has CN(C)C(=[NH2+])NC(N)=[NH2+] a recorded LC retention time greater than or equal to 20 min?
## Result -1

Taken from the supplement of paper PMC6470124.
